# assay-procedure: logP by HPLC on reversed-phase column (EEC Directive 79/831 Annex V.A8)
# experimental-setup: HPLC on reversed-phase column (C 18), EEC Directive 79/831 Annex V.A8
Quick rule: logP of at least 4 means yes (1), below that means no (0).

INSERT INTO results (chemical_structure, label_value) VALUES
  ('Cn1nc(C(F)F)c(C(=O)Nc2ccc(F)cc2-c2ccc(Cl)c(F)c2)c1Cl', 'no (0)'),
  ('CCOCCOc1cc(NC(=O)c2c(C(F)F)nn(C)c2F)ccc1C', 'no (0)'),
  ('Cn1nc(C(F)F)c(C(=O)Nc2ccccc2-c2cc(F)c(F)c(F)c2)c1F', 'no (0)');

(Q) Determine whether this compound has logP no lower than 4: `Cn1nc(C(F)F)c(C(=O)Nc2ccccc2-c2cccc(Cl)c2Cl)c1F`
(A) no (0)

(Q) Determine whether this compound has logP no lower than 4: `Cn1nc(C(F)F)c(C(=O)Nc2cccc(-c3cccc(Cl)c3Cl)c2)c1Cl`
(A) yes (1)

(Q) Determine whether this compound has logP no lower than 4: `Cn1nc(C(F)F)c(C(=O)Nc2ccccc2Br)c1Cl`
(A) no (0)

(Q) Determine whether this compound has logP no lower than 4: `Cn1nc(C(F)F)c(C(=O)Nc2cccc(-c3cc(Cl)cc(Cl)c3)c2)c1F`
(A) yes (1)

(Q) Determine whether this compound has logP no lower than 4: `Cn1nc(C(F)F)c(C(=O)Nc2ccccc2-c2cc(F)c(F)cc2F)c1Cl`
(A) no (0)

(Q) Determine whether this compound has logP no lower than 4: `Cn1nc(C(F)F)c(C(=O)Nc2ccc3c(c2)OCO3)c1Cl`
(A) no (0)
